Measured inhibition at 72 h, 30 µM of individual entries
Test: Growth inhibition of mouse NIH/3T3 cells at 30 uM after 72 hrs by MTT assay relative to control
Assay type: cell-based, NIH3T3
Settings: read-out: GI
Express your answer in %, writing the number without its unit.

Recorded inhibition at 72 h, 30 µM, per entry:
CCC[C@H]1[C@@H]2CCc3cc(OCc4cn([C@H]5O[C@H](COC(C)=O)[C@@H](OC(C)=O)[C@H](OC(C)=O)[C@@H]5OC(C)=O)nn4)ccc3[C@H]2CC[C@]1(C)/C=N/O :: 34.8
CCC[C@H]1[C@@H]2CCc3cc(OCc4cn([C@@H]5O[C@H](COC(C)=O)[C@H](OC(C)=O)[C@H](OC(C)=O)[C@H]5OC(C)=O)nn4)ccc3[C@H]2CC[C@]1(C)/C=N/O :: 25.5

# input compound: CCC[C@H]1[C@@H]2CCc3cc(OCc4cn([C@@H]5O[C@H](COC(C)=O)[C@@H](OC(C)=O)[C@H](OC(C)=O)[C@H]5OC(C)=O)nn4)ccc3[C@H]2CC[C@]1(C)/C=N/O ; wanted: its inhibition at 72 h, 30 µM
28.4

###

Experiment: Growth inhibition of mouse NIH/3T3 cells at 10 uM after 72 hrs by MTT assay relative to control
Format: cell-based, NIH3T3
Settings: read-out: GI
Below: a set of entries, each annotated with reported inhibition at 72 h, 10 µM.

Some molecules with known inhibition at 72 h, 10 µM results, for comparison:
CCC[C@H]1[C@@H]2CCc3cc(OCc4cn([C@@H]5O[C@H](COC(C)=O)[C@@H](OC(C)=O)[C@H](OC(C)=O)[C@H]5OC(C)=O)nn4)ccc3[C@H]2CC[C@]1(C)/C=N/O :: < 20%
CCC[C@H]1[C@@H]2CCc3cc(OCc4cn([C@H]5O[C@H](COC(C)=O)[C@@H](OC(C)=O)[C@H](OC(C)=O)[C@@H]5OC(C)=O)nn4)ccc3[C@H]2CC[C@]1(C)/C=N/O :: 27.3%

Please look at the following molecule next.
Fill in: inhibition at 72 h, 10 µM of CCC[C@H]1[C@@H]2CCc3cc(OCc4cn([C@@H]5O[C@H](COC(C)=O)[C@H](OC(C)=O)[C@H](OC(C)=O)[C@H]5OC(C)=O)nn4)ccc3[C@H]2CC[C@]1(C)/C=N/O is ___
< 20%

###

Tested on: A2780
Assay: Antiproliferative activity against human A2780 cells after 72 hrs by MTT assay
Format: functional, cell-based
Settings: A2780, 72 h
Quick reference: IC50 of the listed items.
Quick note: give the figure in µM, leave out the unit.

# count of solved cases: 3
CCC[C@H]1[C@@H]2CCc3cc(OCc4cn([C@@H]5O[C@H](COC(C)=O)[C@@H](OC(C)=O)[C@H](OC(C)=O)[C@H]5OC(C)=O)nn4)ccc3[C@H]2CC[C@]1(C)/C=N/O :: 5.3
CCC[C@H]1[C@@H]2CCc3cc(OCc4cn([C@@H]5O[C@H](CO)[C@@H](O)[C@H](O)[C@H]5O)nn4)ccc3[C@H]2CC[C@]1(C)/C=N/O :: 27.4
CCC[C@H]1[C@@H]2CCc3cc(OCc4cn([C@@H]5O[C@H](COC(C)=O)[C@H](OC(C)=O)[C@H](OC(C)=O)[C@H]5OC(C)=O)nn4)ccc3[C@H]2CC[C@]1(C)/C=N/O :: 8.8

Using the record for CCC[C@H]1[C@@H]2CCc3cc(OCc4cn([C@H]5O[C@H](COC(C)=O)[C@@H](OC(C)=O)[C@H](OC(C)=O)[C@@H]5OC(C)=O)nn4)ccc3[C@H]2CC[C@]1(C)/C=N/O , report its IC50.
6.6
